Experiment: Cytotoxicity against mouse RAW264.7 cells assessed as cell viability at 5 uM measured after 24 hrs incubation by MTT assay relative to control
Assay type: toxicity, cell-based
Details: read-out: Activity
experimental-readout: viability at 24 h, 5 µM

Please review the entries below; each comes with its answer.
compound	viability at 24 h, 5 µM
C[C@]12CC[C@H]3[C@@H](CC=C4C[C@@H](O)CC[C@@]43C)[C@@H]1CC[C@@H]2C1=NN(C2=NC(=O)CS2)C(c2ccc(S(C)(=O)=O)cc2)C1 (stereo partly drawn)	74.5%
C[C@]12CC[C@H]3[C@@H](CC=C4C[C@@H](O)CC[C@@]43C)[C@@H]1CC[C@@H]2C1=NN(C2=NC(=O)CS2)C(c2ccc(C#N)cc2)C1 (stereo partly drawn)	93.4%

Sample C[C@]12CC[C@H]3[C@@H](CC=C4C[C@@H](O)CC[C@@]43C)[C@@H]1CC[C@@H]2C1=NN(C2=NC(=O)CS2)C(c2ccccc2OCc2ccccc2)C1 (stereo partly drawn) ; viability at 24 h, 5 µM observed: 69%

###

Assay: Cytotoxicity against mouse RAW264.7 cells assessed as cell viability at 5 uM measured after 24 hrs incubation by MTT assay relative to control
Format: toxicity, cell-based
Settings: read-out: Activity
Assign viability at 24 h, 5 µM to each entry below.
One number for each entry, in %.

molecule	recorded-result
C[C@]12CC[C@H]3[C@@H](CC=C4C[C@@H](O)CC[C@@]43C)[C@@H]1CC[C@@H]2C1=NN(C2=NC(=O)CS2)C(c2cccc(Cl)c2)C1 (stereo partly specified)	73.3

For the 2 molecules below, give their viability at 24 h, 5 µM values.
1. CSc1ccc(C2CC([C@H]3CC[C@H]4[C@@H]5CC=C6C[C@@H](O)CC[C@]6(C)[C@H]5CC[C@]34C)=NN2C2=NC(=O)CS2)cc1 (stereo partly specified)
2. C[C@]12CC[C@H]3[C@@H](CC=C4C[C@@H](O)CC[C@@]43C)[C@@H]1CC[C@@H]2C1=NN(C2=NC(=O)CS2)C(c2ccc(Br)cc2)C1 (stereo partly specified)

Marked response:
1. 82.2
2. 85.5

For the 3 molecules below, give their viability at 24 h, 5 µM values.
1. C[C@]12CC[C@H]3[C@@H](CC=C4C[C@@H](O)CC[C@@]43C)[C@@H]1CC[C@@H]2C1=NN(C2=NC(=O)CS2)C(c2ccccc2F)C1 (stereo partly specified)
2. Cc1ccc(C2CC([C@H]3CC[C@H]4[C@@H]5CC=C6C[C@@H](O)CC[C@]6(C)[C@H]5CC[C@]34C)=NN2C2=NC(=O)CS2)cc1 (stereo partly specified)
3. CCOc1ccc(C2CC([C@H]3CC[C@H]4[C@@H]5CC=C6C[C@@H](O)CC[C@]6(C)[C@H]5CC[C@]34C)=NN2C2=NC(=O)CS2)cc1 (stereo partly specified)

Marked response:
1. 86.4
2. 88.5
3. 87.7

###

Experiment: Cytotoxicity against mouse RAW264.7 cells assessed as cell viability at 5 uM measured after 24 hrs incubation by MTT assay relative to control
Assay type: toxicity, cell-based
Conditions: read-out: Activity
experimental-readout: viability at 24 h, 5 µM
Record the result as a number with its unit.

Please review the entries below; each comes with its answer.
compound	viability at 24 h, 5 µM
Cc1cccc(C2CC([C@H]3CC[C@H]4[C@@H]5CC=C6C[C@@H](O)CC[C@]6(C)[C@H]5CC[C@]34C)=NN2C2=NC(=O)CS2)c1 (stereo partly drawn)	75.9%
COc1ccccc1C1CC([C@H]2CC[C@H]3[C@@H]4CC=C5C[C@@H](O)CC[C@]5(C)[C@H]4CC[C@]23C)=NN1C1=NC(=O)CS1 (stereo partly drawn)	70%

From here, focus on the item given below.
Sample C[C@]12CC[C@H]3[C@@H](CC=C4C[C@@H](O)CC[C@@]43C)[C@@H]1CC[C@@H]2C1=NN(C2=NC(=O)CS2)C(c2cccc(F)c2)C1 (stereo partly drawn) ; viability at 24 h, 5 µM observed: 97.4%

// provenance: ChEMBL document CHEMBL5500377
